- Tested on: Escherichia coli
- METHOD DESCRIPTION: Antibacterial activity against penicillin-susceptible Escherichia coli ATCC 25922 assessed as inhibition of bacterial growth measured by broth microdilution method
- Assay type: functional
- TEST CONTEXT: time 24 hrs
Record form. Attribute: MIC. Fill in for each entry.

- CCOc1ccc(/C=C/c2c3ccccc3[n+](C)c3ccccc23)cc1.[I-]: > 64 µg/mL
- C[n+]1c2ccccc2c(Nc2ccc(F)cc2F)c2ccccc21.[Cl-]: > 64 µg/mL
- C[n+]1c2ccccc2c(-c2ccc(-c3ccccc3)cc2)c2ccccc21.[I-]: 64 µg/mL

We now examine a further compound.
Q. Provide one value: measured MIC of COc1cccc(-c2c3ccccc3[n+](C)c3ccccc23)c1.[I-]
A. > 64 µg/mL
